- Tested on: T1, human GLP-1 receptor (human, UniProt P43220 24-463)
- T1 construct: whole, on cells; also called hGLP-1R; human glucagon-like peptide-1 receptor
- Protocol: SPA competition vs [125I]-GLP-1, hGLP-1R membranes
The reader will find reported Ki values listed item by item below.
The reply should contain only the number, in nM.

YXEGTXTSDXXIXLDXIAQXEFIKXLIKGGPSSGAPPPS (Aib2, αMeF(2F)6, 4Pal10, Aib11, αMeL13, Orn16, Aib20, K24(Z1), αMeY25, K28(Z1), C-term NH2; Z1=AEEA2-(γ-Glu)-(10-(4-carboxyphenoxy)decanoyl)) = 0.557
YXEGTXTSDXSIXLDXKAQXXFIXXLIKGGPSSGAPPPS (Aib2, αMeF(2F)6, 4Pal10, αMeL13, Orn16, K17(Z1), Aib20, Orn21, D-Glu24, αMeY25, K28(Z1), C-term NH2; Z1=AEEA2-(γ-Glu)-CO-(CH2)10-CH3) = 0.101
YXEGTXTSDXXIXLDXQAQXEFIKXLIKGGPSSGAPPPS (Aib2, αMeF(2F)6, 4Pal10, Aib11, αMeL13, Orn16, Aib20, K24(Z1), αMeY25, K28(Z1), C-term NH2; Z1=AEEA3-(γ-Glu)-CO-(CH2)12-CO2H) = 0.433
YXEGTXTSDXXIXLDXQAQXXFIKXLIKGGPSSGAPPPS (Aib2, αMeF(2F)6, 4Pal10, Aib11, αMeL13, Orn16, Aib20, Orn21, K24(Z1), αMeY25, K28(Z1), C-term NH2; Z1=PEG6-(γ-Glu)-CO-(CH2)12-CO2H) = 0.2
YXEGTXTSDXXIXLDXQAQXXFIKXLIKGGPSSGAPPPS (Aib2, αMeF(2F)6, 4Pal10, Aib11, αMeL13, Orn16, Aib20, Orn21, K24(Z1), αMeY25, K28(Z1), C-term NH2; Z1=(γ-Glu)-AEEA2-(γ-Glu)-(10-(4-carboxyphenoxy)decanoyl)) = 0.263

Let's switch to this binder now.
Query: So what does the record say about Ki for YXEGTXTSDYXIXLDXQAQXXFIKXLIKGGPSSGAPPPS (Aib2, αMeF(2F)6, Aib11, αMeL13, Orn16, Aib20, Orn21, K24(Z1), αMeY25, K28(Z1), C-term NH2; Z1=AEEA2-(γ-Glu)2-CO-(CH2)12-CO2H) ?
Result: 0.307
